Reference source: patent US20250179103A1

Measured pIC50, listed per entry for reference.
Molecular target: Recombinant STAT3 protein (STAT3(G127-I722)) (Homo sapiens)
Construct: Recombinant STAT3 protein (STAT3(G127-I722))
Sequence (P40763 127-722): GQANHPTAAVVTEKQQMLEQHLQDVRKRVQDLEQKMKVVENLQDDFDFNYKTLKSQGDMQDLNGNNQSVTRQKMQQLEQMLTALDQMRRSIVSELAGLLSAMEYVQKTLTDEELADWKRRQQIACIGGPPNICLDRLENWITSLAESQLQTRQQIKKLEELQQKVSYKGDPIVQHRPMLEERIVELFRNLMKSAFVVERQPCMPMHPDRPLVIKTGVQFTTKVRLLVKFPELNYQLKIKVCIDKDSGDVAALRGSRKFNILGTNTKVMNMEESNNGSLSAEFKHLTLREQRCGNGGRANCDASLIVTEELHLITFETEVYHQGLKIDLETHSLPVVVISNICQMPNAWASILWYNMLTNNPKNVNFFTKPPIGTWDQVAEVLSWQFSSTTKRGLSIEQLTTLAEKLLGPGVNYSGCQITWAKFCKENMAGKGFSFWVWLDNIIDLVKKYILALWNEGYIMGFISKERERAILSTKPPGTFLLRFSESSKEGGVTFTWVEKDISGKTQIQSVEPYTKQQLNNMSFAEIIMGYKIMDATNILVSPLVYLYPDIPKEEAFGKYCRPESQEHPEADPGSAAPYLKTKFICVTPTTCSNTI
Assay: STAT3 Fluorescence Polarization (FP) Assay
Details: STAT3(G127-I722) 25 nM, probe 5-FAM-GpYLPQTV-NH2 2 nM, 45-minute incubation
pIC50: −log10 of the molar value.

Completed entries (count: 4):
1) Cc1ccc2onc(C(=O)N3CC[C@H]4CC[C@@H](C(=O)N5C[C@H](c6cc[nH]c(=O)c6)CC56CC6)N4C(=O)[C@@H](NC(=O)c4ccc5ccc(C(F)(F)P(=O)(O)O)cc5c4)C3)c2c1 | 5.00 to 6.00
2) Cc1ccc2onc(C(=O)N3CC[C@H]4CC[C@@H](C(=O)N5C[C@@H](c6cc[nH]c(=O)c6)CC56CC6)N4C(=O)[C@@H](NC(=O)c4ccc5ccc(C(F)(F)P(=O)(O)O)cc5c4)C3)c2c1 | 5.00 to 6.00
3) COc1ccc(CC2CCCN2C(=O)[C@@H]2CC[C@@H]3CCN(C(C)=O)C[C@H](NC(=O)c4cc5cc(C(F)(F)P(=O)(O)O)ccc5[nH]4)C(=O)N32)cc1 (some centres unmarked) | 5.00 to 6.00
4) CC(=O)N1CC[C@H]2CC[C@@H](C(=O)N3CCN(C(=O)OCc4ccccc4)CC3)N2C(=O)[C@@H](NC(=O)c2cc3cc(C(F)(F)P(=O)(O)O)ccc3[nH]2)C1 | 5.00 to 6.00

// moving on: another record for pIC50
Name the reported pIC50 value associated with the compound CC(=O)N1CC[C@H]2CC[C@@H](C(=O)N3CCC(N4CCCS4(=O)=O)C3)N2C(=O)[C@@H](NC(=O)c2cc3cc(C(F)(F)P(=O)(O)O)ccc3s2)C1 (some centres unmarked)
6.00 to 7.00
